# Test system: hCRTH2 receptor (Homo sapiens (Human))
# Assay notes: Radioligand displacement assay in presence of human serum albumin (HSA)
# Protocol conditions: 3H-PGD2 2.5 nM, HEK293-hCRTH2 membrane fragments, Binding-Buffer-HSA with 0.5% human serum albumin instead of 0.1% BSA
# Description: First, recombinant HEK293-hCRTH2 cells were detached from culture plates into 5 ml buffer A/plate (Buffer A: 5 mM Tris, 1 mM MgCl2-6H2O pH=7.4) using a rubber policeman. Cells were then transferred into centrifugation tubes and centrifuged for 5 min at 400 g. […] Binding assay was performed in a final assay volume of 250 μl. […] Then, 40 μl of Microscint-40 (Packard) was added to each well and the retained radioactivity quantified in a Topcount (Packard). […]
Measured metric: IC50 (nM)

CN(c1nc2cc(F)ccc2o1)C1CCc2c(CC(=O)O)c3ccc(Cl)cc3n2C1 (centres unmarked) | 13
O=C(O)Cc1c2n(c3cc(F)ccc13)CC(Nc1nc3cc(F)ccc3o1)CC2 (centres unmarked) | 20
CN(c1cnc2cc(F)ccc2n1)C1CCc2c(CC(=O)O)c3ccc(Cl)cc3n2C1 (centres unmarked) | 12
CCN(c1ncc(F)cn1)C1CCc2c(CC(=O)O)c3ccc(Cl)cc3n2C1 (centres unmarked) | 3
CN(c1ncc(F)cn1)C1CCc2c(CC(=O)O)c3cc(F)ccc3n2C1 (centres unmarked) | 119

[1] O=C(O)Cc1c2n(c3cc(Cl)ccc13)CC(N(CC(F)F)c1nc3cc(F)ccc3o1)CC2 (centres unmarked)
[2] CN(c1nc2ccc(F)cc2o1)C1CCc2c(CC(=O)O)c3ccc(F)cc3n2C1 (centres unmarked)
I'm curious whether 1 or 2 has the smaller IC50 number. Which is it? Mark your answer with the label of the selected entry.
1

====

# Test system: hCRTH2 receptor (Homo sapiens (Human))
# Assay notes: Radioligand displacement assay in presence of human serum albumin (HSA)
# Protocol conditions: 3H-PGD2 2.5 nM, HEK293-hCRTH2 membrane fragments, Binding-Buffer-HSA with 0.5% human serum albumin instead of 0.1% BSA
pIC50: −log10 of the molar value.
Measured metric: pIC50

CN(c1ncc(Cl)cn1)C1CCc2c(CC(=O)O)c3ccccc3n2C1 (stereo not drawn) [Example 1] | 7.18
CN(c1nc2cc(F)ccc2o1)C1CCc2c(CC(=O)O)c3ccc(C(F)(F)F)cc3n2C1 (stereo not drawn) [Example 28] | 7.70
O=C(O)Cc1c2n(c3cc(Cl)ccc13)CC(Nc1ncc(Cl)cn1)CC2 (stereo not drawn) [Example 37] | 6.41
CN(c1ncc(F)cn1)C1CCc2c(CC(=O)O)c3ccccc3n2C1 (stereo not drawn) [Example 2] | 7.54

[I] CN(c1ncc(C(F)(F)F)cn1)C1CCc2c(CC(=O)O)c3ccc(F)cc3n2C1 (stereo not drawn) [Example 18]
[II] CN(c1ncc(F)cn1)C1CCc2c(CC(=O)O)c3ccc(C(F)(F)F)cc3n2C1 (stereo not drawn) [Example 24]
Higher pIC50: I or II ? Indicate which entry you chose by stating its label.
II
(II: 7.96, I: 7.15)

====

# Test system: hCRTH2 receptor (Homo sapiens (Human))
# Assay notes: hCRTH2 receptor membranes radioligand (3H-PGD2) displacement assay
# Protocol conditions: 3H-PGD2 2.5 nM, HEK293-hCRTH2 membrane fragments, Binding-Buffer with 0.1% BSA
pIC50: −log10 of the molar value.
Measured metric: pIC50

Check out these entries, answers already filled in.
CN(c1ncc(Cl)cn1)C1CCc2c(CC(=O)O)c3cc(OC(F)(F)F)ccc3n2C1 (stereo not drawn) [Example 23] | 6.45
O=C(O)Cc1c2n(c3cc(Cl)ccc13)CC(N(CC(F)F)c1nc3cc(F)ccc3o1)CC2 (stereo not drawn) [Example 44] | 8.52
Cc1cnc(N(C)C2CCc3c(CC(=O)O)c4ccc(Cl)cc4n3C2)nc1 (stereo not drawn) [Example 38] | 8.70

[P] O=C(O)Cc1c2n(c3cc(F)ccc13)CC(Nc1ncc(F)cn1)CC2 (stereo not drawn) [Example 34]
[Q] CN(c1nc2cc(F)ccc2s1)C1CCc2c(CC(=O)O)c3ccccc3n2C1 (stereo not drawn) [Example 6]
Compare pIC50: is it lower for P or for Q ? # respond with the chosen item's label
Q

====

# Test system: hCRTH2 receptor (Homo sapiens (Human))
# Assay notes: hCRTH2 receptor membranes radioligand (3H-PGD2) displacement assay
# Protocol conditions: 3H-PGD2 2.5 nM, HEK293-hCRTH2 membrane fragments, Binding-Buffer with 0.1% BSA
Measured metric: IC50 (nM)

CN(c1ncc2ccccc2n1)C1CCc2c(CC(=O)O)c3ccc(Cl)cc3n2C1 (stereo not shown) | 3
Cc1ccc2c(c1)c(CC(=O)O)c1n2CC(N(C)c2ncc(F)cn2)CC1 (stereo not shown) | 417
CN(c1ncc(F)cn1)C1CCc2c(CC(=O)O)c3cc(Cl)ccc3n2C1 (stereo not shown) | 136
CCCN(c1ncc(F)cn1)C1CCc2c(CC(=O)O)c3ccc(Cl)cc3n2C1 (stereo not shown) | 1
CN(c1ncc(F)cn1)C1CCc2c(CC(=O)O)c3cc(OC(F)(F)F)ccc3n2C1 (stereo not shown) | 141
CN(c1nc2ccc(F)cc2s1)C1CCc2c(CC(=O)O)c3ccccc3n2C1 (stereo not shown) | 9
CN(c1nc2cc(F)ccc2o1)C1CCc2c(CC(=O)O)c3cc(OC(F)(F)F)ccc3n2C1 (stereo not shown) | 964
COc1ccc2c(c1)c(CC(=O)O)c1n2CC(N(C)c2nc3cc(F)ccc3o2)CC1 (stereo not shown) | 231
CN(c1ncc2cc(F)ccc2n1)C1CCc2c(CC(=O)O)c3ccc(Cl)cc3n2C1 (stereo not shown) | 5
CN(c1ncc(C(F)(F)F)cn1)C1CCc2c(CC(=O)O)c3ccc(F)cc3n2C1 (stereo not shown) | 6

[P] CN(c1ncc(F)cn1)C1CCc2c(CC(=O)O)c3ccc(F)cc3n2C1 (stereo not shown)
[Q] CN(c1ncc(Cl)cn1)C1CCc2c(CC(=O)O)c3ccccc3n2C1 (stereo not shown)
Between P and Q , which one shows the smaller IC50 number? Indicate your choice by writing its label.
P
(P: 1 nM, Q: 21 nM)

[1] CCN(c1ncc(F)cn1)C1CCc2c(CC(=O)O)c3ccc(Cl)cc3n2C1 (stereo not shown)
[2] O=C(O)Cc1c2n(c3cc(Cl)ccc13)CC(Nc1ncc(Cl)cn1)CC2 (stereo not shown)
Which is greater in IC50, the first item 1 or the second item 2 ? The response must carry the label of the picked entry.
2

[A] CN(c1ncc(Cl)cn1)C1CCc2c(CC(=O)O)c3ccc(F)cc3n2C1 (stereo not shown)
[B] CN(c1ncc(Cl)cn1)C1CCc2c(CC(=O)O)c3ccc(C(F)(F)F)cc3n2C1 (stereo not shown)
[C] CN(c1nc2ccc(F)cc2o1)C1CCc2c(CC(=O)O)c3ccc(F)cc3n2C1 (stereo not shown)
[D] O=C(O)Cc1c2n(c3cc(Cl)ccc13)CC(N(CC1CC1)c1ncc(F)cn1)CC2 (stereo not shown)
Sort by IC50, descending. Rank the items, then write their labels in that order.
B, A, C, D

[P] CN(c1ncc(F)cn1)C1CCc2c(CC(=O)O)c3ccccc3n2C1 (stereo not shown)
[Q] CC(C)CN(c1nc2cc(F)ccc2o1)C1CCc2c(CC(=O)O)c3ccc(Cl)cc3n2C1 (stereo not shown)
Exercise: compare P and Q ; which one has the greater IC50? Returns: label corresponding to the selected item.
P
(P: 9 nM, Q: 2 nM)

====

# Test system: hCRTH2 receptor (Homo sapiens (Human), UniProt Q9Y5Y4)
# Sequence (Q9Y5Y4 whole entry): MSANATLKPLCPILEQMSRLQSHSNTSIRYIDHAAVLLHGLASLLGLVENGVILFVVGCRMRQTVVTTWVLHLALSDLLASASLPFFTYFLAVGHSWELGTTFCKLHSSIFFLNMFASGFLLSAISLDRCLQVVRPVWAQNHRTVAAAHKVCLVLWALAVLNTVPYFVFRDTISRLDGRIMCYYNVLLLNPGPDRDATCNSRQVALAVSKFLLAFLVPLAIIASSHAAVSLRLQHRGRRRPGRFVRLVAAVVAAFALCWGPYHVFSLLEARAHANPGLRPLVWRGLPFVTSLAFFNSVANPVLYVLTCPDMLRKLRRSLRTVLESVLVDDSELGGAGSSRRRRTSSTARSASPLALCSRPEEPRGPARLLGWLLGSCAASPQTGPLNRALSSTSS
# Assay notes: hCRTH2 receptor membranes radioligand (3H-PGD2) displacement assay
# Protocol conditions: 3H-PGD2 2.5 nM, HEK293-hCRTH2 membrane fragments, Binding-Buffer with 0.1% BSA
pIC50: −log10 of the molar value.
Measured metric: pIC50

Some compounds with recorded pIC50:
Cc1ccc2c(c1)c(CC(=O)O)c1n2CC(N(C)c2nc3cc(F)ccc3o2)CC1 (centres unmarked) | 7.38
COCCN(c1ncc(F)cn1)C1CCc2c(CC(=O)O)c3ccc(Cl)cc3n2C1 (centres unmarked) | 9.10
CN(c1ncc(Cl)cn1)C1CCc2c(CC(=O)O)c3ccc(Cl)cc3n2C1 (centres unmarked) | 8.15

[a] CN(c1nc2cc(F)ccc2s1)C1CCc2c(CC(=O)O)c3ccc(F)cc3n2C1 (centres unmarked)
[b] CCN(c1nc2cc(F)ccc2o1)C1CCc2c(CC(=O)O)c3ccc(Cl)cc3n2C1 (centres unmarked)
Form: Entry with minimum pIC50 (choose one): a / b Output the label that corresponds to your choice.
a

====

# Test system: hCRTH2 receptor (Homo sapiens (Human), UniProt Q9Y5Y4)
# Assay notes: Radioligand displacement assay in presence of human serum albumin (HSA)
# Protocol conditions: 3H-PGD2 2.5 nM, HEK293-hCRTH2 membrane fragments, Binding-Buffer-HSA with 0.5% human serum albumin instead of 0.1% BSA
Measured metric: IC50 (nM)

O=C(O)Cc1c2n(c3cc(Cl)ccc13)CC(Nc1ncc(F)cn1)CC2 (stereo not drawn) | 465

[a] CN(c1nc2cc(F)ccc2o1)C1CCc2c(CC(=O)O)c3ccc(F)cc3n2C1 (stereo not drawn)
[b] CN(c1nc2cc(F)ccc2o1)C1CCc2c(CC(=O)O)c3ccccc3n2C1 (stereo not drawn)
[c] COCCN(c1ncc(F)cn1)C1CCc2c(CC(=O)O)c3ccc(Cl)cc3n2C1 (stereo not drawn)
Could you please order the items by IC50, going from the lowest number to the highest? Rank the items, then write their labels in that order.
a, b, c
(a: 7 nM, b: 24 nM, c: 69 nM)

The reported measurements were obtained from patent US9096595B2.
